The values you see were collected from patent US20240051956A1.

Test system: NCI-H358
TEST SUMMARY: Cell proliferation assay, 3D, CellTiter-Glo 3D
Format: cell-based, human
PARTICULARS: Homo sapiens, 72 h; NCI-H358 (KRAS G12C), 3D ultra-low attachment, 3 days; read-out: anit-prolif. H358 IC50
pIC50: −log10 of the molar value.
Listed here are molecules together with their documented pIC50.

Worked cases, answers included:
Cc1nc(N[C@H](C)c2cccc(C(F)(F)F)c2C)c2cn(N3CCOCC3)c(=O)c(-c3ccc(C#N)nc3)c2n1: 6.30 to 7.00
CC(=O)N1CCN(n2cc3c(N[C@H](C)c4cccc(C(F)F)c4F)nc(C)nc3cc2=O)CC1: 6.00 to 6.30
Cc1nc(N[C@H](C)c2cccc(C(F)(F)F)c2F)c2cn(N3CCOCC3)c(=O)cc2n1: 6.30 to 7.00

Prompt line: Any idea what pIC50 was measured for "Cc1nc(N[C@H](C)c2cccc(C(F)F)c2F)c2cn(N3CCN(C(=O)CO)CC3)c(=O)cc2n1" ?
Response line: 6.00 to 6.30

Prompt line: Then "Cc1nc(N[C@@H](C)c2cccc(C(F)F)c2C)c2cn(N3CCOCC3)c(=O)cc2n1" ?
Response line: < 6.00

Prompt line: Then "Cc1nc(N[C@H](C)c2cccc(C(F)(F)F)c2)c2cn(N3CCOCC3)c(=O)c(F)c2n1" ?
Response line: 6.30 to 7.00

Prompt line: Then "Cc1nc(N[C@H](C)c2cccc(C(F)F)c2F)c2cn(N3CCOCC3)c(=O)c(-c3ccc(F)nc3)c2n1" ?
Response line: 6.30 to 7.00
